# target under test: Aldo-keto reductase family 1 member C3 (Homo sapiens, UniProt P42330)
# Sequence (P42330 whole entry): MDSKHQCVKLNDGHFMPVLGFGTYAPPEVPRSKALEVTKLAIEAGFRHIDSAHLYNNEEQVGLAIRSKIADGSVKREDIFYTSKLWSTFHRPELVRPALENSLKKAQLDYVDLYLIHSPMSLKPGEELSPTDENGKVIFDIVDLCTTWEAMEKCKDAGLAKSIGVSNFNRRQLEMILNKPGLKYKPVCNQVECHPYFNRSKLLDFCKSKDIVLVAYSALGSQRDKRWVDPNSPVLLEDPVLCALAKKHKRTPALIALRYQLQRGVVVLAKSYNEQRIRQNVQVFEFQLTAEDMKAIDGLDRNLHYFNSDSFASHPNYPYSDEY

>  <mol smiles>
Cc1ccc(Nc2cccc(C(=O)O)c2)cc1

>  <IC50>
700 nM

$$$$
>  <mol smiles>
O=C(O)c1cccc(Nc2ccc(C(F)(F)F)cc2)c1

>  <IC50>
62 nM

$$$$
>  <mol smiles>
O=C(O)c1ccccc1Nc1cccc(C(F)(F)F)c1

>  <IC50>
51 nM

$$$$
